experiment: refractive index (Na D-line) (dimensionless); xn = mol fraction of the nth substance listed; conditions: 288.15 K; 100.5 kPa; Liquid; Standard Abbe refractometry; x1 = 0.95
Test Readout: refractive index

Molecule	Observed Measurement
CCCC(=O)OCCC(C)C [3-methylbutyl butanoate] + CCO	1.41181
CC(=O)OCCC(C)C [3-methylbutyl ethanoate] + CCO	1.40207
CCOC(=O)c1ccccc1 [ethyl benzoate] + CCO	1.50477
CCOC(=O)Cc1ccccc1 [ethyl phenylacetate] + CCO	1.4973
CCCCCCCC(=O)OCC [ethyl octanoate] + CCO	1.41904
CCCCCC(=O)OCC [ethyl hexanoate] + CCO	1.40868

* * *

assay: xn = mol fraction of the nth substance listed; conditions: 298.15 K, x1 = 0.7
Test Readout: surface tension liquid-gas (mN/m)

Compound	surface tension liquid-gas [mN/m]
CC(=O)OCCC(C)C [3-methylbutyl ethanoate] + CCO	23.7
CCOC(=O)Cc1ccccc1 [ethyl phenylacetate] + CCO	30.9
CCCC(=O)OCCC(C)C [3-methylbutyl butanoate] + CCO	24.1
CCOC(=O)c1ccccc1 [ethyl benzoate] + CCO	30.8
CCCCCCCC(=O)OCC [ethyl octanoate] + CCO	25.8
CCCCCC(=O)OCC [ethyl hexanoate] + CCO	24.9

* * *

experiment: refractive index (Na D-line) (dimensionless); xn = mol fraction of the nth substance listed; details: 288.15 K; 100.5 kPa; Liquid; Standard Abbe refractometry; x1 = 0.1
Test Readout: refractive index

Molecule	Test Readout	Observed Measurement
CC(=O)OCCC(C)C [3-methylbutyl ethanoate] + CCO	refractive index	1.37207
CCCCCC(=O)OCC [ethyl hexanoate] + CCO	refractive index	1.37451
CCCCCCCC(=O)OCC [ethyl octanoate] + CCO	refractive index	1.37876
CCOC(=O)Cc1ccccc1 [ethyl phenylacetate] + CCO	refractive index	1.39604
CCCC(=O)OCCC(C)C [3-methylbutyl butanoate] + CCO	refractive index	1.37602
CCOC(=O)c1ccccc1 [ethyl benzoate] + CCO	refractive index	1.39597

* * *

experiment: xn = mol fraction of the nth substance listed; conditions: 288.15 K, x1 = 0.55
Test Readout: surface tension liquid-gas (mN/m)

Molecule	surface tension liquid-gas, mN/m
CCCCCC(=O)OCC [ethyl hexanoate] + CCO	25.5
CC(=O)OCCC(C)C [3-methylbutyl ethanoate] + CCO	24.5
CCCC(=O)OCCC(C)C [3-methylbutyl butanoate] + CCO	24.8
CCOC(=O)c1ccccc1 [ethyl benzoate] + CCO	30.2
CCOC(=O)Cc1ccccc1 [ethyl phenylacetate] + CCO	30.3
CCCCCCCC(=O)OCC [ethyl octanoate] + CCO	26.2

* * *

assay: xn = mol fraction of the nth substance listed; settings: 288.15 K, x1 = 0.15
Test Readout: surface tension liquid-gas (mN/m)

Molecule	Unit Name	Observed Measurement
CCOC(=O)Cc1ccccc1 [ethyl phenylacetate] + CCO	mN/m	25.2
CCCCCC(=O)OCC [ethyl hexanoate] + CCO	mN/m	24.1
CCCCCCCC(=O)OCC [ethyl octanoate] + CCO	mN/m	24.4
CCCC(=O)OCCC(C)C [3-methylbutyl butanoate] + CCO	mN/m	23.8
CCOC(=O)c1ccccc1 [ethyl benzoate] + CCO	mN/m	25.5
CC(=O)OCCC(C)C [3-methylbutyl ethanoate] + CCO	mN/m	23.6

* * *

assay: xn = mol fraction of the nth substance listed; conditions: 288.15 K, x1 = 0.45
Test Readout: surface tension liquid-gas (mN/m)

Compound	surface tension liquid-gas [mN/m]
CCCCCCCC(=O)OCC [ethyl octanoate] + CCO	25.9
CCOC(=O)c1ccccc1 [ethyl benzoate] + CCO	29.2
CCOC(=O)Cc1ccccc1 [ethyl phenylacetate] + CCO	29.1
CCCCCC(=O)OCC [ethyl hexanoate] + CCO	25.2
CC(=O)OCCC(C)C [3-methylbutyl ethanoate] + CCO	24.3
CCCC(=O)OCCC(C)C [3-methylbutyl butanoate] + CCO	24.6

* * *

assay: xn = mol fraction of the nth substance listed; conditions: 288.15 K, x1 = 0.05
Test Readout: surface tension liquid-gas (mN/m)

Molecule	Unit Name	surface tension liquid-gas
CCCCCC(=O)OCC [ethyl hexanoate] + CCO	mN/m	23.4
CCCC(=O)OCCC(C)C [3-methylbutyl butanoate] + CCO	mN/m	23.3
CCOC(=O)c1ccccc1 [ethyl benzoate] + CCO	mN/m	23.9
CC(=O)OCCC(C)C [3-methylbutyl ethanoate] + CCO	mN/m	23.2
CCOC(=O)Cc1ccccc1 [ethyl phenylacetate] + CCO	mN/m	23.9
CCCCCCCC(=O)OCC [ethyl octanoate] + CCO	mN/m	23.6

* * *

test: refractive index (Na D-line) (dimensionless); xn = mol fraction of the nth substance listed; conditions: 318.15 K; 100.5 kPa; Liquid; Standard Abbe refractometry; x1 = 0.5
Test Readout: refractive index

Compound	refractive index
CCCC(=O)OCCC(C)C [3-methylbutyl butanoate] + CCO	1.38736
CCOC(=O)c1ccccc1 [ethyl benzoate] + CCO	1.45369
CC(=O)OCCC(C)C [3-methylbutyl ethanoate] + CCO	1.37795
CCOC(=O)Cc1ccccc1 [ethyl phenylacetate] + CCO	1.4503
CCCCCC(=O)OCC [ethyl hexanoate] + CCO	1.38398
CCCCCCCC(=O)OCC [ethyl octanoate] + CCO	1.39403

* * *

assay: refractive index (Na D-line) (dimensionless); xn = mol fraction of the nth substance listed; conditions: 308.15 K; 100.5 kPa; Liquid; Standard Abbe refractometry; x1 = 0.65
Test Readout: refractive index

Compound	refractive index
CCOC(=O)Cc1ccccc1 [ethyl phenylacetate] + CCO	1.46869
CC(=O)OCCC(C)C [3-methylbutyl ethanoate] + CCO	1.38675
CCCC(=O)OCCC(C)C [3-methylbutyl butanoate] + CCO	1.39656
CCOC(=O)c1ccccc1 [ethyl benzoate] + CCO	1.47368
CCCCCC(=O)OCC [ethyl hexanoate] + CCO	1.39312
CCCCCCCC(=O)OCC [ethyl octanoate] + CCO	1.40348

* * *

experiment: xn = mol fraction of the nth substance listed; settings: 308.15 K, x1 = 0.15
Test Readout: surface tension liquid-gas (mN/m)

Compound	surface tension liquid-gas / mN/m
CCCCCCCC(=O)OCC [ethyl octanoate] + CCO	22.8
CCCC(=O)OCCC(C)C [3-methylbutyl butanoate] + CCO	22.2
CCOC(=O)c1ccccc1 [ethyl benzoate] + CCO	23.7
CC(=O)OCCC(C)C [3-methylbutyl ethanoate] + CCO	21.7
CCCCCC(=O)OCC [ethyl hexanoate] + CCO	22.4
CCOC(=O)Cc1ccccc1 [ethyl phenylacetate] + CCO	23.4

* * *

test: refractive index (Na D-line) (dimensionless); xn = mol fraction of the nth substance listed; details: 298.15 K; 100.5 kPa; Liquid; Standard Abbe refractometry; x1 = 0.25
Test Readout: refractive index

Molecule	refractive index
CCCCCC(=O)OCC [ethyl hexanoate] + CCO	1.38146
CCCC(=O)OCCC(C)C [3-methylbutyl butanoate] + CCO	1.38406
CC(=O)OCCC(C)C [3-methylbutyl ethanoate] + CCO	1.37712
CCOC(=O)c1ccccc1 [ethyl benzoate] + CCO	1.42598
CCCCCCCC(=O)OCC [ethyl octanoate] + CCO	1.38905
CCOC(=O)Cc1ccccc1 [ethyl phenylacetate] + CCO	1.42491

* * *

assay: refractive index (Na D-line) (dimensionless); xn = mol fraction of the nth substance listed; conditions: 308.15 K; 100.5 kPa; Liquid; Standard Abbe refractometry; x1 = 0.3
Test Readout: refractive index

Compound	refractive index
CCCC(=O)OCCC(C)C [3-methylbutyl butanoate] + CCO	1.38268
CCOC(=O)Cc1ccccc1 [ethyl phenylacetate] + CCO	1.42899
CCCCCC(=O)OCC [ethyl hexanoate] + CCO	1.37986
CCOC(=O)c1ccccc1 [ethyl benzoate] + CCO	1.43033
CC(=O)OCCC(C)C [3-methylbutyl ethanoate] + CCO	1.37499
CCCCCCCC(=O)OCC [ethyl octanoate] + CCO	1.38823

* * *

test: xn = mol fraction of the nth substance listed; settings: 308.15 K, x1 = 0.1
Test Readout: surface tension liquid-gas (mN/m)

Compound	surface tension liquid-gas / mN/m
CCCC(=O)OCCC(C)C [3-methylbutyl butanoate] + CCO	22
CCOC(=O)c1ccccc1 [ethyl benzoate] + CCO	23
CCCCCCCC(=O)OCC [ethyl octanoate] + CCO	22.5
CCOC(=O)Cc1ccccc1 [ethyl phenylacetate] + CCO	22.8
CC(=O)OCCC(C)C [3-methylbutyl ethanoate] + CCO	21.6
CCCCCC(=O)OCC [ethyl hexanoate] + CCO	22.1

* * *

test: xn = mol fraction of the nth substance listed; conditions: 298.15 K, x1 = 0.2
Test Readout: surface tension liquid-gas (mN/m)

Compound	surface tension liquid-gas / mN/m
CCCCCC(=O)OCC [ethyl hexanoate] + CCO	23.5
CCOC(=O)c1ccccc1 [ethyl benzoate] + CCO	25.3
CCOC(=O)Cc1ccccc1 [ethyl phenylacetate] + CCO	24.9
CCCC(=O)OCCC(C)C [3-methylbutyl butanoate] + CCO	23.1
CC(=O)OCCC(C)C [3-methylbutyl ethanoate] + CCO	22.8
CCCCCCCC(=O)OCC [ethyl octanoate] + CCO	24
